Where a name gives a salt, the structure may show the parent alone.
// reported melting point per item
property: melting point

molecule: CS(=O)(=O)O.O=c1c2ccc(Cl)cc2[nH]c2c(O)nn(CC#Cc3cccnc3)c(=O)c12 [Ex. 5]
result: 227 to 229 °C
--
molecule: O=c1c2ccc(Cl)cc2[nH]c2c(O)nn(CC#Cc3ccccc3Cl)c(=O)c12 [Ex. 4]
result: 255 to 257 °C
--
molecule: O=c1c2ccc(Cl)cc2[nH]c2c(O)nn(CC#Cc3ccc(Cl)cc3)c(=O)c12 [Ex. 3]
result: 251 to 252 °C
--
molecule: O=c1c2ccc(Cl)cc2[nH]c2c(O)nn(CC#Cc3ccncc3)c(=O)c12 (as salt: methanesulfonate) [Ex. 1]
result: 238 to 241 °C
--
molecule: O=c1c2ccc(Cl)cc2[nH]c2c(O)nn(CC#Cc3cccc(Cl)c3)c(=O)c12 [Ex. 2]
result: 220 to 222 °C

----------
# tested on: NMDA receptor glycine site (Rattus norvegicus)
# Construct: fresh brain tissue including cerebral cortex and hippocampus from male Sprague Dawley rats was homogenized; tissue Analytical Biological Services Inc
# run description: Test A: Inhibition of binding of [3H]-MDL105,519
# Experimental: Test A: Inhibition of Binding of [^3H]-MDL105,519: Binding of compounds to the NMDA receptor glycine site may be assessed by measuring the ability of test compounds to inhibit the binding of tritiated MDL105,519 to brain membranes bearing the receptor. […] [^3]MDL105,519 (72 Ci/mmol) was purchased from Amersham. […] Non specific binding was determined by using 100 μM of unlabeled MDL105,519. […]
The following molecules are shown together with reported Ki values.
property: Ki (nM)

molecule: CS(=O)(=O)O.O=c1c2ccc(Cl)cc2[nH]c2c(O)nn(CC#Cc3cccnc3)c(=O)c12 [Ex. 5, methanesulfonate]
property: Ki
recorded number: 14
//
molecule: O=c1c2ccc(Cl)cc2[nH]c2c(O)nn(CC#Cc3cccc(Cl)c3)c(=O)c12
property: Ki
recorded number: 7.86
//
molecule: O=c1c2ccc(Cl)cc2[nH]c2c(O)nn(CC#Cc3ccccc3Cl)c(=O)c12
property: Ki
recorded number: 113
//
molecule: O=c1c2ccc(Cl)cc2[nH]c2c(O)nn(CC#Cc3ccc(Cl)cc3)c(=O)c12
property: Ki
recorded number: 86.6
//
molecule: O=c1c2ccc(Cl)cc2[nH]c2c(O)nn(CC#Cc3ccc(Cl)nc3)c(=O)c12
property: Ki
recorded number: 106
//
molecule: O=c1c2ccc(Cl)cc2[nH]c2c(O)nn(CC#Cc3ccncc3)c(=O)c12
property: Ki
recorded number: 67.6
